studySystem: UBE2D3
assayInfo: reporter assay of Huesken 2005; also: test concentration or dose not given here
statedConditions: siRNA
Oligonucleotides are given in HELM: sugar(base)linkage, 5' to 3'; d 2'-deoxyribose, r ribose, m 2'-O-methylribose, p phosphate. ss, as = sense and antisense strand
readoutType: normalised inhibition (eCFP-eYFP dual reporter) (%)
API: value field is a number in %; no unit string.

[Q] Name the reported normalised inhibition (eCFP-eYFP dual reporter) value associated with the substance RNA1{r(U)p.r(A)p.r(U)p.r(G)p.r(U)p.r(U)p.r(U)p.r(C)p.r(A)p.r(U)p.r(U)p.r(G)p.r(G)p.r(C)p.r(A)p.r(A)p.r(G)p.r(C)p.r(C)p.d(T)p.d(T)}|RNA2{r(G)p.r(G)p.r(C)p.r(U)p.r(U)p.r(G)p.r(C)p.r(C)p.r(A)p.r(A)p.r(U)p.r(G)p.r(A)p.r(A)p.r(A)p.r(C)p.r(A)p.r(U)p.r(A)p.d(T)p.d(C)}$$$RNA1{StrandType:ss}|RNA2{StrandType:as}$
[A] 44.7

[Q] Input RNA1{r(C)p.r(A)p.r(A)p.r(G)p.r(C)p.r(C)p.r(A)p.r(C)p.r(A)p.r(A)p.r(U)p.r(U)p.r(A)p.r(U)p.r(G)p.r(G)p.r(G)p.r(A)p.r(C)p.d(T)p.d(T)}|RNA2{r(G)p.r(U)p.r(C)p.r(C)p.r(C)p.r(A)p.r(U)p.r(A)p.r(A)p.r(U)p.r(U)p.r(G)p.r(U)p.r(G)p.r(G)p.r(C)p.r(U)p.r(U)p.r(G)p.d(C)p.d(C)}$$$RNA1{StrandType:ss}|RNA2{StrandType:as}$
[A] 35.2

[Q] Input RNA1{r(C)p.r(A)p.r(G)p.r(U)p.r(A)p.r(A)p.r(U)p.r(G)p.r(G)p.r(C)p.r(A)p.r(G)p.r(C)p.r(A)p.r(U)p.r(U)p.r(U)p.r(G)p.r(U)p.d(T)p.d(T)}|RNA2{r(A)p.r(C)p.r(A)p.r(A)p.r(A)p.r(U)p.r(G)p.r(C)p.r(U)p.r(G)p.r(C)p.r(C)p.r(A)p.r(U)p.r(U)p.r(A)p.r(C)p.r(U)p.r(G)p.d(T)p.d(T)}$$$RNA1{StrandType:ss}|RNA2{StrandType:as}$
[A] 97.4

###

studySystem: UBE2G1
assayInfo: reporter assay of Huesken 2005
statedConditions: siRNA
Oligonucleotides are written 5' to 3', each unit as a sugar letter and its base; * is a phosphorothioate linkage, no mark a phosphodiester; rarer units and linkages stand in square brackets, end groups in braces. Plain capitals give the bases only. d = 2'-deoxy (DNA); r = 2'-OH (RNA)
readoutType: normalised inhibition (eCFP-eYFP dual reporter) (%)
API: value field is a number in %; no unit string.

[Q] Name the reported normalised inhibition (eCFP-eYFP dual reporter) value associated with the substance sense rArGrArUrUrArUrCrCrCrCrUrCrCrGrArCrCrUdTdT / antisense rArGrGrUrCrGrGrArGrGrGrGrArUrArArUrCrUdTdT
[A] 84.2

[Q] Input sense rUrGrArUrGrUrGrUrGrCrArUrUrUrCrUrArUrUdTdT / antisense rArArUrArGrArArArUrGrCrArCrArCrArUrCrAdCdC
[A] 74.8

[Q] Input sense rUrArCrCrGrArUrGrGrGrArArGrUrCrCrUrUrAdTdT / antisense rUrArArGrGrArCrUrUrCrCrCrArUrCrGrGrUrAdGdA
[A] 93.1

[Q] Input sense rUrUrArGrUrGrUrCrArUrUrUrCrUrArUrGrCrUdTdT / antisense rArGrCrArUrArGrArArArUrGrArCrArCrUrArAdTdC
[A] 54

[Q] Input sense rUrGrArArArArGrCrCrArGrArGrGrArArCrGrCdTdT / antisense rGrCrGrUrUrCrCrUrCrUrGrGrCrUrUrUrUrCrAdTdA
[A] 35.9

[Q] Input sense rUrArUrCrCrArCrArCrUrGrUrGrGrArArArCrCdTdT / antisense rGrGrUrUrUrCrCrArCrArGrUrGrUrGrGrArUrAdGdG
[A] 41.2
